biological target: P-gp (ABCB1) (Homo sapiens, UniProt P08183); assay: Activation of human P-gp expressed in high five insect cell membrane vesicles by measuring the vanadate-sensitive ATPase activity of P-gp at 0.05 uM preincubated for 5 mins in the presence of sodium orthovanadate measured after 20 mins by colorimetric method; details: read-out: Activity
Sequence (P08183 whole entry): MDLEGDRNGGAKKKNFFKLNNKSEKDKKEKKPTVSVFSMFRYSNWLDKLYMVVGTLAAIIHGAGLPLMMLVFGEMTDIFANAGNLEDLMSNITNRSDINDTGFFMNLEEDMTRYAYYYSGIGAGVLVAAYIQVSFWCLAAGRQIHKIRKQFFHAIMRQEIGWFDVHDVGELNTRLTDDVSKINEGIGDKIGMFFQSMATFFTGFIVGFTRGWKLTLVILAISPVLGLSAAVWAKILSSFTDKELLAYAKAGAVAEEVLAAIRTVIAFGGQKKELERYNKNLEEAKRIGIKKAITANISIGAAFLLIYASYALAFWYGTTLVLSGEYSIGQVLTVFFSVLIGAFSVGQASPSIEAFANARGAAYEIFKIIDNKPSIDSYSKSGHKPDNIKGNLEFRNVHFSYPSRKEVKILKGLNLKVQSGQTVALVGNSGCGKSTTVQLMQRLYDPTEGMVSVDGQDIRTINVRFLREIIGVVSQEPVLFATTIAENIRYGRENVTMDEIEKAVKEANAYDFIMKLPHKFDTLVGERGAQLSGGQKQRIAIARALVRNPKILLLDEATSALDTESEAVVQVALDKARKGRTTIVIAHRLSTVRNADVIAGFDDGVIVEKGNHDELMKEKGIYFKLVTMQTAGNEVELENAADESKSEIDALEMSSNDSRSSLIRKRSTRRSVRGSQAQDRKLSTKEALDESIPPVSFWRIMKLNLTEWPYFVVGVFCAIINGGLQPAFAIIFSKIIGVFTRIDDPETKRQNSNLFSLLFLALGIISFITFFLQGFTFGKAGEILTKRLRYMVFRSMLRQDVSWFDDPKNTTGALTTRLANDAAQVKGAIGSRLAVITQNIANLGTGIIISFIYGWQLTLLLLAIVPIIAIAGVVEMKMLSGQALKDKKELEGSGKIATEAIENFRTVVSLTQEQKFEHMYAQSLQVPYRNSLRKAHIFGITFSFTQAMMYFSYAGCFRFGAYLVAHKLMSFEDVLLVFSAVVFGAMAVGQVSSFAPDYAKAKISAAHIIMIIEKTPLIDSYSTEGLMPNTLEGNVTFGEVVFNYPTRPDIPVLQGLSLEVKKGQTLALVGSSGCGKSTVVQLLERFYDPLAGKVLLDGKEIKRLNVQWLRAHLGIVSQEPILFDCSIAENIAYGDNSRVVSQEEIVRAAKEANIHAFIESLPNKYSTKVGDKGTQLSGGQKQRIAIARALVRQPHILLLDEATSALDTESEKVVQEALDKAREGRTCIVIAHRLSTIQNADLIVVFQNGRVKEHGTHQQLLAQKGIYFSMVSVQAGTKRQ
OBSERVABLE: activity at 20 min, 0.05 µM (%)

>  <ITEM SMILES>
COc1cc(C(=O)N[C@H](c2nc(C(=O)Nc3ccccc3NC(=O)c3ccccc3)cs2)C(C)C)cc(OC)c1OC

>  <RELATION SIGN>
≤

>  <REPORTED>
10

$$$$
>  <ITEM SMILES>
COc1cc(C(=O)N[C@H](c2nc(C(=O)Nc3ccccc3Cc3ccccc3)cs2)C(C)C)cc(OC)c1OC

>  <RELATION SIGN>
=

>  <REPORTED>
15

$$$$
>  <ITEM SMILES>
CC(C)[C@H](NC(=O)c1cccc(N)c1)c1nc(C(=O)Nc2ccccc2C(=O)c2ccccc2)cs1

>  <RELATION SIGN>
=

>  <REPORTED>
376

$$$$
>  <ITEM SMILES>
COc1cc(C(=O)N[C@H](c2nc(C(=O)Nc3ccccc3Oc3ccccc3)cs2)C(C)C)cc(OC)c1OC

>  <RELATION SIGN>
≤

>  <REPORTED>
10

$$$$
>  <ITEM SMILES>
COc1cc(C(=O)N[C@H](c2nc(C(=O)Nc3ccccc3C(=O)Nc3ccccc3)cs2)C(C)C)cc(OC)c1OC

>  <RELATION SIGN>
=

>  <REPORTED>
21

$$$$
>  <ITEM SMILES>
COc1cc(C(=O)N[C@H](c2nc(C(=O)Nc3ccccc3C(=O)c3ccc(Br)cc3)cs2)C(C)C)cc(OC)c1OC

>  <RELATION SIGN>
=

>  <REPORTED>
309

$$$$
>  <ITEM SMILES>
COc1cc(C(=O)N[C@H](c2nc(C(=O)NC34CC5CC(CC(C5)C3)C4)cs2)C(C)C)cc(OC)c1OC

>  <RELATION SIGN>
≤

>  <REPORTED>
10

$$$$
>  <ITEM SMILES>
COc1cc(C(=O)N[C@H](c2nc(C(=O)Nc3ccccc3C(=O)c3ccccc3)cs2)C(C)C)cc(OC)c1OC

>  <RELATION SIGN>
=

>  <REPORTED>
54

$$$$
>  <ITEM SMILES>
COc1cc(C(=O)N[C@H](c2nc(C(=O)NC3CC3)cs2)C(C)C)cc(OC)c1OC

>  <RELATION SIGN>
≤

>  <REPORTED>
10

$$$$
>  <ITEM SMILES>
COc1cc(C(=O)N[C@H](c2nc(C(=O)Nc3cccc(C(=O)c4ccccc4)c3)cs2)C(C)C)cc(OC)c1OC

>  <RELATION SIGN>
=

>  <REPORTED>
13

$$$$
>  <ITEM SMILES>
COc1cc(NC(=O)c2csc([C@@H](NC(=O)c3ccccc3C(=O)c3ccccc3)C(C)C)n2)cc(OC)c1OC

>  <RELATION SIGN>
≤

>  <REPORTED>
10

$$$$

* * *

# ATP-dependent translocase ABCB1 (Homo sapiens): IC50 values follow
# Sequence (P08183 whole entry): as above

>  <COMPOUND>
COc1cc(C(=O)NC(Cc2ccccc2)c2nc(C(=O)NC3CCC(F)(F)CC3)cs2)cc(OC)c1OC (configuration not stated)

>  <IC50 / µM>
0.76

$$$$
>  <COMPOUND>
COc1cc(C(=O)N[C@H](c2nc(C(=O)NC3CCC(F)(F)CC3)cs2)C(C)C)cc(OC)c1OC

>  <IC50 / µM>
0.1

$$$$

* * *

target: P-gp (ABCB1) (Homo sapiens, UniProt P08183); test: Inhibition of human P-gp expressed in high five insect cell membrane vesicles by measuring the vanadate-sensitive ATPase activity of P-gp at 2.5 uM preincubated for 5 mins in the presence of sodium orthovanadate measured after 20 mins by colorimetric method
OBSERVABLE: inhibition at 20 min, 2.5 µM (%)

>  <MOLECULE>
COc1cc(C(=O)NC(c2nc(C(=O)NC3CCC(C(F)(F)F)CC3)cs2)C(C)C)cc(OC)c1OC (configuration not stated)

>  <REPORTED>
21.7

$$$$
>  <MOLECULE>
CC(C)[C@H](NC(=O)C1CCC(F)(F)CC1)c1nc(C(=O)NC2CCC(F)(F)CC2)cs1

>  <REPORTED>
16.4

$$$$
>  <MOLECULE>
COc1cc(C(=O)NC(Cc2ccccc2)c2nc(C(=O)NC3CCC(F)(F)CC3)cs2)cc(OC)c1OC (configuration not stated)

>  <REPORTED>
42.5

$$$$
>  <MOLECULE>
COc1cc(C(=O)N[C@H](c2nc(C(=S)NC3CCC(F)(F)CC3)cs2)C(C)C)cc(OC)c1OC

>  <REPORTED>
25.9

$$$$
>  <MOLECULE>
COc1cc(C(=O)N[C@H](c2nc(C(=O)NC3CCC(F)(F)CC3)cs2)C(C)C)cc(OC)c1OC

>  <REPORTED>
33.9

$$$$
>  <MOLECULE>
CC(C)[C@H](NC(=O)c1cc(F)c(F)c(F)c1)c1nc(C(=O)NC2CCC(F)(F)CC2)cs1

>  <REPORTED>
23.3

$$$$
>  <MOLECULE>
COc1cc(C(=O)NC(Cc2ccc(O)cc2)c2nc(C(=O)NC3CCC(F)(F)CC3)cs2)cc(OC)c1OC (configuration not stated)

>  <REPORTED>
23

$$$$

* * *

molecular target: P-gp (ABCB1) (Homo sapiens, UniProt P08183); test: Activation of human P-gp expressed in high five insect cell membrane vesicles by measuring the vanadate-sensitive ATPase activity of P-gp at 2.5 uM preincubated for 5 mins in the presence of sodium orthovanadate measured after 20 mins by colorimetric method; settings: read-out: Activity

>  <ITEM SMILES>
COc1cc(C(=O)N[C@H](c2nc(C(=O)NC3CCC3)cs2)C(C)C)cc(OC)c1OC

>  <activity at 20 min, 2.5 µM>
≤ 10%

$$$$
>  <ITEM SMILES>
COc1cc(C(=O)N[C@H](c2nc(C(=O)Nc3ccccc3C(=O)c3ccc(N=[N+]=[N-])cc3)cs2)C(C)C)cc(OC)c1OC

>  <activity at 20 min, 2.5 µM>
169%

$$$$
>  <ITEM SMILES>
COc1ccc(C(=O)N[C@H](c2nc(C(=O)NC3CCC(F)(F)CC3)cs2)C(C)C)cc1OC

>  <activity at 20 min, 2.5 µM>
11.9%

$$$$
>  <ITEM SMILES>
COc1cc(C(=O)NCc2nc(C(=O)NC3CCC(F)(F)CC3)cs2)cc(OC)c1OC

>  <activity at 20 min, 2.5 µM>
13%

$$$$
>  <ITEM SMILES>
COc1cc(C(=O)N[C@H](c2nc(C(=O)N3CCC(=O)CC3)cs2)C(C)C)cc(OC)c1OC

>  <activity at 20 min, 2.5 µM>
≤ 10%

$$$$

* * *

Recorded activity at 20 min, 2.5 µM by entry
biological target: UniProt:P08183; experiment: Activation of human P-gp expressed in high five insect cell membrane vesicles by measuring the vanadate-sensitive ATPase activity of P-gp at 2.5 uM preincubated for 5 mins in the presence of sodium orthovanadate measured after 20 mins by colorimetric method; settings: read-out: Activity
OBSERVABLE: activity at 20 min, 2.5 µM (%)

>  <ITEM SMILES>
COc1cc(C(=O)N[C@H](c2nc(C(=O)NC3CCN(C(=O)OC(C)(C)C)CC3)cs2)C(C)C)cc(OC)c1OC

>  <RELATION SIGN>
=

>  <REPORTED>
48

$$$$
>  <ITEM SMILES>
COc1cc(C(=O)N[C@H](c2nc(C(=O)Nc3cc(F)c(F)c(F)c3)cs2)C(C)C)cc(OC)c1OC

>  <RELATION SIGN>
=

>  <REPORTED>
176

$$$$
>  <ITEM SMILES>
COc1cc(C(=O)Nc2nc(C(=O)NC3CCC(F)(F)CC3)cs2)cc(OC)c1OC

>  <RELATION SIGN>
=

>  <REPORTED>
60.2

$$$$
>  <ITEM SMILES>
COc1cc(C(=O)N[C@H](c2nc(C(=O)Nc3ccccc3C(=O)c3ccccc3)cs2)C(C)C)cc(OC)c1OC

>  <RELATION SIGN>
=

>  <REPORTED>
88

$$$$
>  <ITEM SMILES>
COc1cc(C(=O)N[C@H](c2nc(C(=O)N3CCC(N)CC3)cs2)C(C)C)cc(OC)c1OC

>  <RELATION SIGN>
≤

>  <REPORTED>
10

$$$$
>  <ITEM SMILES>
COc1cc(C(=O)N[C@H](c2nc(C(=O)N3CCC(N4CCCCC4)CC3)cs2)C(C)C)cc(OC)c1OC

>  <RELATION SIGN>
=

>  <REPORTED>
47.2

$$$$
>  <ITEM SMILES>
COc1cc(C(=O)N[C@H](c2nc(C(=O)Nc3ccc(F)cc3)cs2)C(C)C)cc(OC)c1OC

>  <RELATION SIGN>
=

>  <REPORTED>
244

$$$$
>  <ITEM SMILES>
COc1cc(C(=O)N[C@H](c2nc(C(=O)NCCCC(F)(F)F)cs2)C(C)C)cc(OC)c1OC

>  <RELATION SIGN>
=

>  <REPORTED>
77.3

$$$$

These entries and their values trace back to ChEMBL document CHEMBL4024781.
